inhibition at 20 µg/mL values, listed per item
Test system: IL-6 reactive STAT3 reporter gene
Test: IL-6 reactive STAT3 reporter gene test (pSTAT3-TA-Luc6 luciferase) in HepG2 cells
Assay type: cell-based
Conditions: Homo sapiens, HepG2, 20 ug/ml of sample, HepG2 cells; read-out: Inhibition % of IL-6 reactive STAT3 reporter gene activity
Record the value in %, omitting the unit from your answer.

Chemical string | U | inhibition at 20 µg/mL
CCc1ccc(Nc2nc3cc(NC(=O)Cc4ccccc4)ccc3o2)cc1 | % | 61.7
CCc1ccc(Nc2nc3cc(NC(=O)c4ccc(Cl)c(Cl)c4)ccc3o2)cc1 | % | 69.3

# ---- query compound ----
q: API: value(readout=inhibition at 20 µg/mL, system=IL-6 reactive STAT3 reporter gene) for record CCOc1ccccc1C(=O)Nc1ccc2oc(Nc3ccc(CC)cc3)nc2c1
a: 58
